This collection of values is drawn from paper PMC8809517.

Collected Kd values appear next to each entry.
Molecular target: T1, GFP-9S library array, motif 4 ND N98Y;D124K (synthetic construct, N98Y;D124K)
T1 chain: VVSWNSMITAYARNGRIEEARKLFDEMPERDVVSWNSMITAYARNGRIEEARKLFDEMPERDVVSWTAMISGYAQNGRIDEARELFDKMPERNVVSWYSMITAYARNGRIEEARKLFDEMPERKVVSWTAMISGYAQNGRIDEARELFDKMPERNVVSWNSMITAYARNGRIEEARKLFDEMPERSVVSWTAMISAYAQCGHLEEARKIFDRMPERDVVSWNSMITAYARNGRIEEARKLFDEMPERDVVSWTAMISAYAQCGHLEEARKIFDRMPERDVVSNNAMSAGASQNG
Experiment: high-throughput RNA pulldown from lysate on Ni-NTA beads; HRP: 50 mM Tris pH 8, 150 mM NaCl, 1 mM beta-mercaptoethanol, 50 ug/ml BSA, 3 ug/ml yeast RNA, 0.5% heparin; ITC and FP: Tris pH 8, 200 mM KCl, 5% glycerol; MST: 50 mM Tris pH 8, 200 mM NaCl, 1 mM DTT, BSA, heparin, 0.05% Tween 20
Conditions: tags: N-terminal His-eGFP; label: 5' Cy5

{"columns": ["BINDER", "UNIT DESCRIPTOR", "Kd"],
 "data": [
  ["AUUACACGUGA (ssRNA) [Cy5-rpoA]", "µM", 0.0933],
  ["AUUAGACGUGA (ssRNA) [Cy5-rpoA-G]", "µM", 0.097]
]}
